meta.source: patent US6306890A

- targetOrTestSystem: human COX-2 (Homo sapiens, UniProt P35354)
- protocolDetails: Inhibition of purified human COX-2, TLC assay ([1-14C]-arachidonic acid), time-dependent
- assayContext: Table 1 esters; COX-2 selectivity ratio, IC50 COX-1 / IC50 COX-2
quantityKind: Selectivity

Examples with their reported Selectivity follow.
# molecule, targetOrTestSystem, Selectivity
rows = [
    ("COc1ccc2c(c1)c(CCOC(=O)c1ccc(C)cc1)c(C)n2C(=O)c1ccc(Cl)cc1 [Compound 5b]", "human COX-2 (Homo sapiens, UniProt P35354)", "> 1320"),
    ("COc1ccc(C(=O)OCCc2c(C)n(C(=O)c3ccc(Cl)cc3)c3ccc(OC)cc23)cc1 [Compound 5c]", "human COX-2 (Homo sapiens, UniProt P35354)", "> 1466"),
    ("COc1ccc2c(c1)c(CCOC(=O)c1ccccc1OC)c(C)n2C(=O)c1ccc(Cl)cc1 [Compound 5d]", "human COX-2 (Homo sapiens, UniProt P35354)", "> 1320"),
]

input: Given the molecule COc1ccc2c(c1)c(CCOC(=O)c1ccc(I)cc1)c(C)n2C(=O)c1ccc(Cl)cc1 [Compound 5g] , what is its reported Selectivity?
output: > 1320

###

- targetOrTestSystem: human COX-2 (Homo sapiens)
- Sequence (P35354 18-604): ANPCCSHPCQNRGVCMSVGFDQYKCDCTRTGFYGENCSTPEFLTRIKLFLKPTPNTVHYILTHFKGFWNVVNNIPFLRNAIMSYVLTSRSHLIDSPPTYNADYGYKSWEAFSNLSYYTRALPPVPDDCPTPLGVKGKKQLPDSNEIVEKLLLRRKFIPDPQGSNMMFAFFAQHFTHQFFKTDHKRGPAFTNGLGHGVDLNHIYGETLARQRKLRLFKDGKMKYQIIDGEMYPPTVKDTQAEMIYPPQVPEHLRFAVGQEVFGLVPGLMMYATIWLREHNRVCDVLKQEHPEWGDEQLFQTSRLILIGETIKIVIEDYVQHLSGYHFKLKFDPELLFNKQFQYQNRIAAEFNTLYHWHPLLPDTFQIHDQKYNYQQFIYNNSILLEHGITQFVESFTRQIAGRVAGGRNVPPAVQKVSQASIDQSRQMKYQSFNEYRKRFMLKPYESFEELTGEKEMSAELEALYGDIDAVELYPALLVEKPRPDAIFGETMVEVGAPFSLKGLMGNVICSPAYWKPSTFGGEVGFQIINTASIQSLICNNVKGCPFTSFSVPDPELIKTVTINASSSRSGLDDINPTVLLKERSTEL
- protocolDetails: Inhibition of purified human COX-2, TLC assay ([1-14C]-arachidonic acid), time-dependent
For each record, write down the corresponding IC50.
Answers are plain numbers, in nM.

Examples with their reported IC50 follow.
# smilesRecord, IC50 [nM]
measured = [
    ("COc1ccc2c(c1)c(CCOC(=O)c1ccc(C)cc1)c(C)n2C(=O)c1ccc(Cl)cc1", 50),
    ("COc1ccc2c(c1)c(CCOC(=O)c1ccc(I)cc1)c(C)n2C(=O)c1ccc(Cl)cc1", 50),
    ("COc1ccc2c(c1)c(CCOC(=O)c1ccccc1OC)c(C)n2C(=O)c1ccc(Cl)cc1", 50),
]

Could you now look at the following compound, please?
input: Given the compound COc1ccc(C(=O)OCCc2c(C)n(C(=O)c3ccc(Cl)cc3)c3ccc(OC)cc23)cc1 , what is its reported IC50?
output: 40
